FYI, the data here is from patent US5025033A.

target: Acetylcholinesterase (Rattus norvegicus, UniProt P37136); construct: the S1 fraction of a male Wistar rat cerebral cortex homogenate was used as a cholinesterase source; from tissue; host or cells: male Wistar rat cerebral cortex homogenate, S1 fraction; assay: Acetylcholinesterase inhibiting activity using (acetyl-[3H])-acetylcholine, S1 fraction of rat cerebral cortex homogenate; type: biochemical, male Wistar rat; settings: rat cerebral cortex homogenate S1 fraction; 30 minutes of incubation; read-out: Acetylcholinesterase inhibiting activity IC50
Sequence (P37136 32-614): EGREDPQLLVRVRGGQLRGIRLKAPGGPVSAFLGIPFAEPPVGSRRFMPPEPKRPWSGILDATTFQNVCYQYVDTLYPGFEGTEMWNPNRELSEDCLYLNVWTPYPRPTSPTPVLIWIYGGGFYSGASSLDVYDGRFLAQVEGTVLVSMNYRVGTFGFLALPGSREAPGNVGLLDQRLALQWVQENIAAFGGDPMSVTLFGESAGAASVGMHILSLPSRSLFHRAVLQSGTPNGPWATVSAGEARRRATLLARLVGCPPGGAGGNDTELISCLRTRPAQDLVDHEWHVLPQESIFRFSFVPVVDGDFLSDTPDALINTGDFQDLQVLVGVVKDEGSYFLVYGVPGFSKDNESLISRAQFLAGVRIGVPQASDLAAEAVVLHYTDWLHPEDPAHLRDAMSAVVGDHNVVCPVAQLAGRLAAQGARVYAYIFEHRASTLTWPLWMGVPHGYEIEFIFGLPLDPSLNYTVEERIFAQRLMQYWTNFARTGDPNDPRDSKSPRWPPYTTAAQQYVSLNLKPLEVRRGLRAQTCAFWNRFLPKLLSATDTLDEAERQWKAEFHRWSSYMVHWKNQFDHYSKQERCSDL
# IC50 listing for each entry below
Quick reminder: number only, in nM, skip the unit.

A selection of reference data follows.
Compound: CCN(CCCCCN1C(=O)c2ccc([N+](=O)[O-])cc2C1=O)Cc1cccc2ccccc12 [Compound 2-28]
Reported Endpoint: IC50
Numeric Readout: 110
//
Compound: CCN(CCCCCN1C(=O)c2ccc([N+](=O)[O-])cc2C1=O)Cc1ccccc1Cl [Compound 2-21]
Reported Endpoint: IC50
Numeric Readout: 130
//
Compound: CCN(CCCCCN1C(=O)c2ccc([N+](=O)[O-])cc2C1=O)Cc1cccc(Cl)c1 [Compound 2-20]
Reported Endpoint: IC50
Numeric Readout: 240

// lookup IC50 for CCN(CCCCCNC(=O)/C=C/c1ccc([N+](=O)[O-])cc1)Cc1ccccc1OC [Compound 18-2]
290
